- assay system: CDK4/cyclin D3 (Homo sapiens, UniProt P11802)
- Construct: purchased Carna Biosciences, Inc. QS S Assist CDK4/Cyclin D3_FP Kit
- Sequence (P11802 whole entry): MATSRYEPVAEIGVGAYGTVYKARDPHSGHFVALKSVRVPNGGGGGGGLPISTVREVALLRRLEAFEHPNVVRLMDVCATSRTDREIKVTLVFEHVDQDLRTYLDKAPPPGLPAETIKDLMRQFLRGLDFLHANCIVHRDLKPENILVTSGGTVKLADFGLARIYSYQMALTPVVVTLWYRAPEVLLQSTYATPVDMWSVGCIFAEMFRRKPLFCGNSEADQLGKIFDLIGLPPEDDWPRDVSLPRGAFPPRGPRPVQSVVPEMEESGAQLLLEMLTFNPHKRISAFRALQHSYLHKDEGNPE
- Sequence (P30281 whole entry partner): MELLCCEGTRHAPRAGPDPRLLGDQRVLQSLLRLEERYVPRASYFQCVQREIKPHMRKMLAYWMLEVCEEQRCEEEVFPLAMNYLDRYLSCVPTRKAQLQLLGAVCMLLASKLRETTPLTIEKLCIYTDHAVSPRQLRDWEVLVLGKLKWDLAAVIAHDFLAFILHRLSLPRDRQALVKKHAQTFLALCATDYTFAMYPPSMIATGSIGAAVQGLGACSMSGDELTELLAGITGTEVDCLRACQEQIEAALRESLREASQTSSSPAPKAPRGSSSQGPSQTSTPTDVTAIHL
- test: Human CDK4/cyclin D3 inhibitory activity (QS S Assist CDK4/Cyclin D3_FP Kit, IMAP fluorescence polarization)
- Type: biochemical
- test settings: 50% inhibitory concentration against CDK4/cyclin D3, given as class symbol
property measured: IC50

| compound | assay system | property measured | result |
| --- | --- | --- | --- |
| CC(C)Nc1nc(C2CCCO2)cc2cnc(Nc3ccc(N4CCNCC4)nn3)nc12 (single isomer, unassigned) [Compound 714] | CDK4/cyclin D3 (Homo sapiens, UniProt P11802) | IC50 | ≥ 100 nM |

Kindly give each listed record's IC50.
1. CC(C)Nc1nc([C@@H](C)O)cc2cnc(Nc3ccc(N4CC(C)(C)NCC4=O)cn3)nc12 [Compound 923]
2. CC1(c2cc3cnc(Nc4ccc5c(n4)CCN(C(=O)CO)C5)nc3c(N[C@H]3CC[C@H](O)CC3)n2)COC1 [Compound 1146]
3. CC(C)Nc1nc([C@@H](C)O)cc2cnc(Nc3ccc(N4CCNC5(CC5)C4=O)cn3)nc12 [Compound 733]
4. C[C@@H](O)c1cc2cnc(Nc3ccc(CN4CCC(O)CC4)cn3)nc2c(N[C@H]2CC[C@H](O)CC2)n1 [Compound 1064]
5. CC(C)Nc1nc([C@@H](C)O)cc2cnc(Nc3ccc(N4CCn5cncc5C4)nn3)nc12 [Compound 964]

a:
1. < 10 nM
2. < 10 nM
3. 10 to 100 nM
4. < 10 nM
5. < 10 nM

q: # input compound: c1cc2c(nc1Nc1ncc3cc(C4CCOC4)nc(NC4CCCOC4)c3n1)CCNC2 (single isomer, unassigned) [Compound 943] ; wanted: its IC50
a: 10 to 100 nM

---

- assay system: CDK2/cyclin A2 (Homo sapiens, UniProt P24941)
- Construct: purchased Carna Biosciences, Inc. QS S Assist CDK2/Cyclin A2_FP Kit
- test: Human CDK2/cyclin A2 inhibitory activity (QS S Assist CDK2/Cyclin A2_FP Kit, IMAP fluorescence polarization)
- Type: biochemical
- test settings: Human CDK2/cyclin A2 inhibitory activity; read-out: CDK2 Activity symbol
- Protocol: Human CDK2/Cyclin A^2 Inhibitory Activity Each compound was analyzed for CDK2/cyclin A2 inhibitory activity with an assay kit (QS S Assist CDK2/Cyclin A2_FP Kit, available from Carna Biosciences, Inc.). […] Specifically, the kinase activity is determined through quantification of a variation in fluorescent polarization caused by binding of a kinase-phosphorylated fluorescent substance to an IMAP-binding reagent. […]
property measured: IC50

Answered examples (8):
| compound | IC50 |
| --- | --- |
| COCC(C)(C)Nc1nc([C@@H](C)O)cc2cnc(Nc3ccc(CN4CCOCC4(C)C)cn3)nc12 | ≥ 100 nM |
| CNc1nc(C(F)F)cc2cnc(Nc3ccc(N4CCNCC4)cn3)nc12 | ≥ 100 nM |
| CC(C)Nc1nc(C(F)F)cc2cnc(Nc3ccc(-c4ccncc4)cn3)nc12 | ≥ 100 nM |
| C[C@@H](O)c1cc2cnc(Nc3ccc(N4CCNCC4)nn3)nc2c(N[C@@H]2CCOC2)n1 | ≥ 100 nM |
| CC(C)Nc1nc(C(F)F)cc2cnc(Nc3ccc(OCCN4CCCC4=O)cn3)nc12 | ≥ 100 nM |
| CO[C@H](C)c1cc2cnc(Nc3ccc(OCCN4CCCC4)cn3)nc2c(NC(C)C)n1 | ≥ 100 nM |
| CC(C)Nc1nc([C@H](C)O)cc2cnc(Nc3ccc(N4CCNCC4)cn3)nc12 | ≥ 100 nM |
| COC1CCN(Cc2ccc(Nc3ncc4cc([C@@H](C)OC)nc(NC(C)C)c4n3)nc2)CC1 | ≥ 100 nM |

Kindly give each listed record's IC50.
1. CC(C)Nc1nc(C(F)F)cc2cnc(Nc3ccc(CCCC(N)=O)cn3)nc12
2. CO[C@H](C)c1cc2cnc(Nc3ccc(N4CC5(CNC5)CC4=O)cn3)nc2c(NC(C)C)n1
3. COCCNCc1ccc(Nc2ncc3cc([C@@H](C)O)nc(NC(C)C)c3n2)nc1
4. CC(C)Nc1nc(C(C)O)cc2cnc(Nc3ccc(N4CCC(CCCO)CC4)cn3)nc12 (stereo not drawn)
5. CC(C)Nc1nc(C(=O)N(C)C)cc2cnc(Nc3ccc(N4CCNCC4)cn3)nc12
6. FC(F)c1cc2cnc(Nc3ccc(N4CCNCC4)cn3)nc2c(NC2CCOCC2)n1
7. C[C@@H](O)c1cc2cnc(Nc3ccc(N4CCNCC4)nn3)nc2c(NC2CCS(=O)(=O)CC2)n1

a:
1: ≥ 100 nM; 2: 10 to 100 nM; 3: ≥ 100 nM; 4: ≥ 100 nM; 5: ≥ 100 nM; 6: 10 to 100 nM; 7: ≥ 100 nM
